Assay: Cytotoxicity against human hepa59T/VGH cells by MTT assay
Format: cell-based, Hepa 59T/VGH
Conditions: read-out: ED50 (the source's name)
// CC50 lookup, one value per entry
RESULT TYPE: CC50

>>> measured_value("COc1cccc2c1C(=O)c1c(O)c3c(c(O)c1C2=O)C[C@@](O)(C(=O)CO)C[C@@H]3O[C@H]1C[C@H](N)[C@H](O)[C@H](C)O1 [DOXORUBICIN]")
"0.11 µg/mL"
>>> measured_value("C=C1CCCC(C)(C)[C@@H]1C/C=C(\\C)[C@H]1CC[C@@H]2[C@@]3(C)CCCC(C)(C)[C@@H]3CC[C@@]2(C)O1")
"> 10 µg/mL"
>>> measured_value("C=C1CCCC(C)(C)[C@@H]1C[C@@H](OC(=O)c1ccccc1)/C(C)=C/CC[C@@H]1[C@@]2(C)CCCC(C)(C)[C@@H]2CC[C@@]1(C)O")
"> 10 µg/mL"
>>> measured_value("C=C1CCCC(C)(C)[C@@H]1CC[C@](C)(O)[C@@H]1CCC2[C@@](C)(CC[C@H]3C(C)(C)CCC[C@]23C)O1 (stereo partly drawn)")
"> 10 µg/mL"
>>> measured_value("C=C1CCCC(C)(C)[C@@H]1C[C@@H]1O[C@]2(C)CC[C@H]3C(C)(C)CCC[C@]3(C)[C@H]2CC/C=C\\1C")
"> 10 µg/mL"
>>> measured_value("C=C1CCCC(C)(C)[C@@H]1CCC(C)=O")
"> 10 µg/mL"
>>> measured_value("C=C1CCCC(C)(C)[C@@H]1C[C@@H](O)/C(C)=C/CC[C@@H]1[C@@]2(C)CCCC(C)(C)[C@@H]2CC[C@@]1(C)O")
"> 10 µg/mL"
>>> measured_value("C=C1CCCC(C)(C)[C@@H]1C[C@H](O)/C(C)=C/CC[C@@H]1[C@@]2(C)CCCC(C)(C)[C@@H]2CC[C@@]1(C)O")
"5.7 µg/mL"
>>> measured_value("C=C1CCCC(C)(C)[C@@H]1CC(=O)/C(C)=C/CC[C@@H]1[C@@]2(C)CCCC(C)(C)[C@@H]2CC[C@@]1(C)O")
"6.8 µg/mL"
>>> measured_value("C=C1CCCC(C)(C)[C@@H]1CC/C(=C\\CC[C@@H]1[C@@]2(C)CCCC(C)(C)[C@@H]2CC[C@@]1(C)O)CO")
"> 10 µg/mL"
>>> measured_value("C=C1CCCC(C)(C)[C@@H]1CC/C(=C/CC[C@@H]1[C@@]2(C)CCCC(C)(C)[C@@H]2CC[C@@]1(C)O)COC(=O)c1ccccc1")
"> 10 µg/mL"
>>> measured_value("C=C1CCCC(C)(C)[C@@H]1CC/C(C)=C/CC[C@@H]1[C@@]2(C)CCCC(C)(C)[C@@H]2CC[C@@]1(C)O [AMBREIN]")
"> 10 µg/mL"
>>> measured_value("C=C1CCCC(C)(C)[C@@H]1C[C@H](OC(=O)c1ccccc1)/C(C)=C/CC[C@@H]1[C@@]2(C)CCCC(C)(C)[C@@H]2CC[C@@]1(C)O")
"> 10 µg/mL"

###

// Elastase release (% of DMSO control) lookup, one value per entry
Assay: Antiinflammatory activity assessed as inhibition of fMLP-induced elastase release in human neutrophils at 10 ug/mL relative to control
Format: functional, cell-based, Neutrophil
RESULT TYPE: Elastase release (% of DMSO control) (%)

>>> measured_value("C=C1CCCC(C)(C)[C@@H]1CC[C@](C)(O)[C@@H]1CCC2[C@@](C)(CC[C@H]3C(C)(C)CCC[C@]23C)O1 (stereo partly specified)")
81.3
>>> measured_value("C=C1CCCC(C)(C)[C@@H]1C/C=C(\\C)[C@H]1CC[C@@H]2[C@@]3(C)CCCC(C)(C)[C@@H]3CC[C@@]2(C)O1")
92.2
>>> measured_value("C=C1CCCC(C)(C)[C@@H]1C[C@@H](OC(=O)c1ccccc1)/C(C)=C/CC[C@@H]1[C@@]2(C)CCCC(C)(C)[C@@H]2CC[C@@]1(C)O")
85.6
>>> measured_value("C=C1CCCC(C)(C)[C@@H]1C[C@@H]1O[C@]2(C)CC[C@H]3C(C)(C)CCC[C@]3(C)[C@H]2CC/C=C\\1C")
82
>>> measured_value("C=C1CCCC(C)(C)[C@@H]1C[C@H](OC(=O)c1ccccc1)/C(C)=C/CC[C@@H]1[C@@]2(C)CCCC(C)(C)[C@@H]2CC[C@@]1(C)O")
115.5
>>> measured_value("C=C1CCCC(C)(C)[C@@H]1C[C@H](O)/C(C)=C/CC[C@@H]1[C@@]2(C)CCCC(C)(C)[C@@H]2CC[C@@]1(C)O")
132.7
>>> measured_value("C=C1CCCC(C)(C)[C@@H]1CC/C(=C\\CC[C@@H]1[C@@]2(C)CCCC(C)(C)[C@@H]2CC[C@@]1(C)O)CO")
74.4
>>> measured_value("C=C1CCCC(C)(C)[C@@H]1CC(=O)/C(C)=C/CC[C@@H]1[C@@]2(C)CCCC(C)(C)[C@@H]2CC[C@@]1(C)O")
95.1
>>> measured_value("O=c1c(-c2ccc(O)cc2)coc2cc(O)cc(O)c12")
51.6
>>> measured_value("C=C1CCCC(C)(C)[C@@H]1CC/C(=C/CC[C@@H]1[C@@]2(C)CCCC(C)(C)[C@@H]2CC[C@@]1(C)O)COC(=O)c1ccccc1")
75.6
>>> measured_value("C=C1CCCC(C)(C)[C@@H]1C[C@@H](O)/C(C)=C/CC[C@@H]1[C@@]2(C)CCCC(C)(C)[C@@H]2CC[C@@]1(C)O")
79.3

###

// CC50 lookup, one value per entry
Test: Cytotoxicity against human A549 cells by MTT assay
Type: cell-based
Conditions: read-out: ED50 (the source's name)
RESULT TYPE: CC50

>>> measured_value("C=C1CCCC(C)(C)[C@@H]1CC/C(=C\\CC[C@@H]1[C@@]2(C)CCCC(C)(C)[C@@H]2CC[C@@]1(C)O)CO")
"> 10 µg/mL"
>>> measured_value("C=C1CCCC(C)(C)[C@@H]1C[C@@H](O)/C(C)=C/CC[C@@H]1[C@@]2(C)CCCC(C)(C)[C@@H]2CC[C@@]1(C)O")
"> 10 µg/mL"
>>> measured_value("C=C1CCCC(C)(C)[C@@H]1CC/C(C)=C/CC[C@@H]1[C@@]2(C)CCCC(C)(C)[C@@H]2CC[C@@]1(C)O")
"> 10 µg/mL"
>>> measured_value("C=C1CCCC(C)(C)[C@@H]1CC(=O)/C(C)=C/CC[C@@H]1[C@@]2(C)CCCC(C)(C)[C@@H]2CC[C@@]1(C)O")
"5.3 µg/mL"
>>> measured_value("C=C1CCCC(C)(C)[C@@H]1C[C@H](O)/C(C)=C/CC[C@@H]1[C@@]2(C)CCCC(C)(C)[C@@H]2CC[C@@]1(C)O")
"6.4 µg/mL"
>>> measured_value("COc1cccc2c1C(=O)c1c(O)c3c(c(O)c1C2=O)C[C@@](O)(C(=O)CO)C[C@@H]3O[C@H]1C[C@H](N)[C@H](O)[C@H](C)O1")
"0.21 µg/mL"
>>> measured_value("C=C1CCCC(C)(C)[C@@H]1C[C@@H](OC(=O)c1ccccc1)/C(C)=C/CC[C@@H]1[C@@]2(C)CCCC(C)(C)[C@@H]2CC[C@@]1(C)O")
"> 10 µg/mL"
>>> measured_value("C=C1CCCC(C)(C)[C@@H]1C/C=C(\\C)[C@H]1CC[C@@H]2[C@@]3(C)CCCC(C)(C)[C@@H]3CC[C@@]2(C)O1")
"> 10 µg/mL"
>>> measured_value("C=C1CCCC(C)(C)[C@@H]1CCC(C)=O")
"> 10 µg/mL"
>>> measured_value("C=C1CCCC(C)(C)[C@@H]1C[C@@H]1O[C@]2(C)CC[C@H]3C(C)(C)CCC[C@]3(C)[C@H]2CC/C=C\\1C")
"> 10 µg/mL"
>>> measured_value("C=C1CCCC(C)(C)[C@@H]1CC[C@](C)(O)[C@@H]1CCC2[C@@](C)(CC[C@H]3C(C)(C)CCC[C@]23C)O1 (stereo partly drawn)")
"> 10 µg/mL"
>>> measured_value("C=C1CCCC(C)(C)[C@@H]1CC/C(=C/CC[C@@H]1[C@@]2(C)CCCC(C)(C)[C@@H]2CC[C@@]1(C)O)COC(=O)c1ccccc1")
"> 10 µg/mL"
>>> measured_value("C=C1CCCC(C)(C)[C@@H]1C[C@H](OC(=O)c1ccccc1)/C(C)=C/CC[C@@H]1[C@@]2(C)CCCC(C)(C)[C@@H]2CC[C@@]1(C)O")
"> 10 µg/mL"

###

Test: Cytotoxicity against human MCF7 cells by MTT assay
Assay type: cell-based
Conditions: read-out: ED50 (the source's name)
// CC50 lookup, one value per entry
RESULT TYPE: CC50

>>> measured_value("C=C1CCCC(C)(C)[C@@H]1C[C@H](O)/C(C)=C/CC[C@@H]1[C@@]2(C)CCCC(C)(C)[C@@H]2CC[C@@]1(C)O")
"4 µg/mL"
>>> measured_value("C=C1CCCC(C)(C)[C@@H]1C/C=C(\\C)[C@H]1CC[C@@H]2[C@@]3(C)CCCC(C)(C)[C@@H]3CC[C@@]2(C)O1")
"> 10 µg/mL"
>>> measured_value("C=C1CCCC(C)(C)[C@@H]1CC/C(C)=C/CC[C@@H]1[C@@]2(C)CCCC(C)(C)[C@@H]2CC[C@@]1(C)O")
"> 10 µg/mL"
>>> measured_value("C=C1CCCC(C)(C)[C@@H]1CCC(C)=O")
"> 10 µg/mL"
>>> measured_value("C=C1CCCC(C)(C)[C@@H]1C[C@@H](O)/C(C)=C/CC[C@@H]1[C@@]2(C)CCCC(C)(C)[C@@H]2CC[C@@]1(C)O")
"> 10 µg/mL"
>>> measured_value("C=C1CCCC(C)(C)[C@@H]1C[C@@H]1O[C@]2(C)CC[C@H]3C(C)(C)CCC[C@]3(C)[C@H]2CC/C=C\\1C")
"> 10 µg/mL"
>>> measured_value("C=C1CCCC(C)(C)[C@@H]1C[C@@H](OC(=O)c1ccccc1)/C(C)=C/CC[C@@H]1[C@@]2(C)CCCC(C)(C)[C@@H]2CC[C@@]1(C)O")
"> 10 µg/mL"
>>> measured_value("C=C1CCCC(C)(C)[C@@H]1CC/C(=C\\CC[C@@H]1[C@@]2(C)CCCC(C)(C)[C@@H]2CC[C@@]1(C)O)CO")
"> 10 µg/mL"
>>> measured_value("C=C1CCCC(C)(C)[C@@H]1C[C@H](OC(=O)c1ccccc1)/C(C)=C/CC[C@@H]1[C@@]2(C)CCCC(C)(C)[C@@H]2CC[C@@]1(C)O")
"> 10 µg/mL"
>>> measured_value("COc1cccc2c1C(=O)c1c(O)c3c(c(O)c1C2=O)C[C@@](O)(C(=O)CO)C[C@@H]3O[C@H]1C[C@H](N)[C@H](O)[C@H](C)O1")
"0.12 µg/mL"
>>> measured_value("C=C1CCCC(C)(C)[C@@H]1CC(=O)/C(C)=C/CC[C@@H]1[C@@]2(C)CCCC(C)(C)[C@@H]2CC[C@@]1(C)O")
"8.5 µg/mL"
>>> measured_value("C=C1CCCC(C)(C)[C@@H]1CC[C@](C)(O)[C@@H]1CCC2[C@@](C)(CC[C@H]3C(C)(C)CCC[C@]23C)O1 (stereo partly drawn)")
"> 10 µg/mL"
>>> measured_value("C=C1CCCC(C)(C)[C@@H]1CC/C(=C/CC[C@@H]1[C@@]2(C)CCCC(C)(C)[C@@H]2CC[C@@]1(C)O)COC(=O)c1ccccc1")
"> 10 µg/mL"
